MEASUREMENT_PROTOCOL: self-splicing fitness, log relative to wild type (ln ratio); higher = more splicing; Tetrahymena group I intron in knt gene, E. coli kanamycin selection, DiMSum; sequences stand for … in CUCUCU…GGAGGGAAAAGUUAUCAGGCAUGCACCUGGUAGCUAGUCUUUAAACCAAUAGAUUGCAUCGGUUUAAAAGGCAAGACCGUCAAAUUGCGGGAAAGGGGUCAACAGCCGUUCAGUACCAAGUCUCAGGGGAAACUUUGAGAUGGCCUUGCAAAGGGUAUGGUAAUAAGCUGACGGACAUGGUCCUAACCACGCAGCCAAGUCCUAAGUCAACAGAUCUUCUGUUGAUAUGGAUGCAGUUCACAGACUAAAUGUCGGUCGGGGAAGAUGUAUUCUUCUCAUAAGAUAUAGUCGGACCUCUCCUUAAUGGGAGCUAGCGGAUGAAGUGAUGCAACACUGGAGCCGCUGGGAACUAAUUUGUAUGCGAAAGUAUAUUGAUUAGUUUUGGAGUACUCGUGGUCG;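 note: selection with 25 µg/mL kanamycin versus none on LB agar overnight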
DETAILS: 30 °C
# cutoff -3 applies to self-splicing fitness (ln); >= gives Met, < gives Not met

SEQ | CLASS
GGCUAGCAAUAUUACGCACU | Met
UGAAAGCAAUAUUACGUUAC | Not met
GGUCAGCAAUAUUACGUGCU | Met
UUCUAGCAAUAUUACGUUGU | Not met
CCACAGCAAUAUUACGGUCU | Not met
CUUGAGCAAUAUUACGUACA | Met
AAUUAGCAAUAUUACGGCAC | Met
CCGCAGCAAUAUUACGCUAA | Not met
AGAUAGCAAUAUUACGACUC | Met
CUGCAGCAAUAUUACGAAUG | Met
ACCCAGCAAUAUUACGGCGC | Met
UCUAAGCAAUAUUACGAUCC | Not met
AAGUAGCAAUAUUACGUAUU | Met

* * *

MEASUREMENT_PROTOCOL: self-splicing fitness, log relative to wild type (ln ratio); higher = more splicing; Tetrahymena group I intron in knt gene, E. coli kanamycin selection, DiMSum; sequences stand for … in CUCUCU…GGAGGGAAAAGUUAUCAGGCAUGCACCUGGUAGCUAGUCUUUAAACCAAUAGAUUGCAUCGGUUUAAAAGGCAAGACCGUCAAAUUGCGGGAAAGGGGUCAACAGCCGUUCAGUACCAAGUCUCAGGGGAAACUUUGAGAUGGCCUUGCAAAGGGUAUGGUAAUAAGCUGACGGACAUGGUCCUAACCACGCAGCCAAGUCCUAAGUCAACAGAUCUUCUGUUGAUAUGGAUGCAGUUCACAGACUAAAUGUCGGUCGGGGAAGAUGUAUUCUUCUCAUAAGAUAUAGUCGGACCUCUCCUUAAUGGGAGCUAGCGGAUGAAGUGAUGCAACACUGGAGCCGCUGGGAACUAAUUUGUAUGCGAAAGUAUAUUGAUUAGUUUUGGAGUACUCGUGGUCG
DETAILS: 37 °C
OBSERVABLE: self-splicing fitness (ln)

SEQ | DATA_VALUE
UCACAGCAAUAUUACGGUCU | -1.67
GCCUAGCAAUAUUACGUCCG | -2.03
AUAGAGCAAUAUUACGACAG | -0.985
AAAAAGCAAUAUUACGAGUA | -0.884
GUCCAGCAAUAUUACGUUCU | -0.777
GACCAGCAAUAUUACGGCGA | 0.13
CUGAAGCAAUAUUACGACGA | -0.00885
AUAGAGCAAUAUUACGUGAG | -2.42
UGCGAGCAAUAUUACGCGGC | -3.46
UGGAAGCAAUAUUACGACAU | -1.92
AGUAAGCAAUAUUACGUCAG | -2.58
UCAUAGCAAUAUUACGUUUC | -1.72
ACGUAGCAAUAUUACGGCUC | -0.844
GGUGAGCAAUAUUACGUCCU | -1.45
GUUAAGCAAUAUUACGUACU | -0.935
ACUCAGCAAUAUUACGACCG | -1
